tested on: SF-295 CNS; assay: NCI-60 one-dose screen, 48 h (100 = growth as untreated, 0 = no growth, -100 = all killed); settings: 10 µM unless noted
This is part of a sample that, as a whole, favours compounds with a hit. Of some 83,000 tested, about 20% had one in any assay.

| compound | tgt | growth [%] |
| --- | --- | --- |
| CC(C)(c1ccc(OCC(O)CNCc2ccco2)cc1)c1ccc(OCC(O)CNCc2ccco2)cc1 (stereo not drawn) | SF-295 CNS | 95.2 |
| O=S(=O)(Nc1cccc2cc(OS(=O)(=O)c3ccccc3)ccc12)c1ccccc1 | SF-295 CNS | 59.3 |
| COc1ccc(OC)c(NCC(=O)n2nc(/C=C\c3ccc(O)c(OC)c3)cc2/C=C\c2ccc(O)c(OC)c2)c1 | SF-295 CNS | 24 |
| c1coc(CSc2ncnc3nc[nH]c23)c1 | SF-295 CNS | 142 |
| COc1ccc(Cl)cc1NC(=O)c1cc2c(n1C)-c1nc(NC(=O)C(C)C)sc1CC2 | SF-295 CNS | 92.5 |
| COc1ccc(-c2[nH]c3ccccc3c2/C=C(\C#N)S(=O)(=O)c2ccccc2)cc1 | SF-295 CNS | -11.5 |
| O=C1CCC(=O)N1C1CCCCC1 | SF-295 CNS | 97.5 |
| Cc1cc(-c2ccccc2)nc2ccccc12 | SF-295 CNS | 97.6 |
| CCc1c(C)c2cc3c(c(C)c2oc1=O)OCC(=O)N3 | SF-295 CNS | 71.7 |
| NS(=O)(=O)c1ccc(CCN2C(=O)/C(=C\c3ccc(Cl)cc3)C=C2c2ccc(Oc3ccccc3)cc2)cc1 | SF-295 CNS | 77.3 |
| O=C1OC(c2ccc(-c3ccccc3)cc2)=C/C1=C/C=C/c1ccccc1 | SF-295 CNS | 65.6 |
| Nc1ccc(S(=O)(=O)Nc2ccnn2-c2ccccc2)cc1 | SF-295 CNS | 102 |
| CSc1nc(N)nc2c1ncn2C | SF-295 CNS | 108 |

###

system: NCI-H522 lung; assay: NCI-60 one-dose screen, 48 h (100 = growth as untreated, 0 = no growth, -100 = all killed); details: 10 µM unless noted
Compounds without any hit were thinned out: in the full panel of roughly 83,000, 20% have a hit.

| compound | tgt | readout_unit | growth |
| --- | --- | --- | --- |
| O=C1OC(N(Cc2ccc(Cl)cc2)c2ccccc2)c2ccccc21 (centres undefined) | NCI-H522 lung | % | 65.8 |
| COc1ccc(Cn2cc(COc3ccc4c5ccnc(C)c5n(CCCc5ccccc5)c4c3)nn2)cc1 | NCI-H522 lung | % | 64.4 |
| CCCCCC/C=N/Nc1ccc([N+](=O)[O-])cn1 | NCI-H522 lung | % | 78.2 |
| CN1CCN(Cn2nc(-c3cc(Cl)cc(Cl)c3Cl)n(/N=C/c3ccc(Cl)cc3)c2=S)CC1 | NCI-H522 lung | % | 91.1 |
| COc1cc(NC(=O)C#Cc2ccccc2)c(OC)cc1Cl | NCI-H522 lung | % | 39.2 |
| COc1cc(/C=C\c2cc(/C=C\c3ccc(O)c(OC)c3)n(C(=O)CNc3ccccc3OC)n2)ccc1O | NCI-H522 lung | % | 21.9 |
| C=C1C(=O)O[C@H]2[C@H]1CC/C(COC(=O)n1ccnc1C)=C\CC[C@@]1(C)O[C@@H]21 | NCI-H522 lung | % | 66.3 |
| O=C1CCC(=O)N1C1CCCCC1 | NCI-H522 lung | % | 103 |
| CS(=O)(=O)Nc1cccc(-c2ccc3ncnc(Nc4ccc(F)c(Cl)c4)c3c2)c1 | NCI-H522 lung | % | -23.6 |

This collection of values is drawn from PubChem BioAssay (NCI).
